Recorded values, source the Human Domainome abundance scans (Beltran et al. 2025).

B1: POU domain, class 5, transcription factor 1, residues 134 to 212; numbered along this chain, Q01860 (parent)
chain: EESQDIKALQKELEQFAKLLKQKRITLGYTQADVGLTLGVLFGKVFSQTTICRFEALQLSFKNMCKLRPLLQKWVEEAD

# Variants of: B1
# Assay summary: abundance fitness (aPCA) (normalised: wild type 0, dead -1); higher = more abundant; growth selection in yeast, the domain comes from the species named
# Assay setup: Homo sapiens
The variants listed here are annotated with their abundance fitness.
Please state the value as a number alone, without comment.

Study these solved cases before continuing.
Monomer sequence	Quantity kind	Reported result
EESQDKKALQKELEQFAKLLKQKRITLGYTQADVGLTLGVLFGKVFSQTTICRFEALQLSFKNMCKLRPLLQKWVEEAD [I6K]	abundance fitness	0.359
EESQDIKALQKELEQFAKLLKQKRITLGYTQADVGLTLWVLFGKVFSQTTICRFEALQLSFKNMCKLRPLLQKWVEEAD [G39W]	abundance fitness	-0.712
EESQDIKALQKELEQFAKLLKQKRITLGYTQADVGLTLGVLFGKVFSQTTICRFEALQLSFKNMCKLRPQLQKWVEEAD [L70Q]	abundance fitness	0.143
EESQDIKALQKELEQFAKLLKQKRITLGYTQADVGLTLGVLFGKVFSQTVICRFEALQLSFKNMCKLRPLLQKWVEEAD [T50V]	abundance fitness	0.015
EESQDIDALQKELEQFAKLLKQKRITLGYTQADVGLTLGVLFGKVFSQTTICRFEALQLSFKNMCKLRPLLQKWVEEAD [K7D]	abundance fitness	0.061
EESQDIKALQKELEQFAKLLKQKRITLGYTQADVGLCLGVLFGKVFSQTTICRFEALQLSFKNMCKLRPLLQKWVEEAD [T37C]	abundance fitness	-0.733

Prompt line: Suppose we examine the variant EESQDIKALYKELEQFAKLLKQKRITLGYTQADVGLTLGVLFGKVFSQTTICRFEALQLSFKNMCKLRPLLQKWVEEAD [Q10Y] ; what abundance fitness value has been reported?
Response line: 0.042

Prompt line: Suppose we examine the variant EESQDIKALQKELEQFAQLLKQKRITLGYTQADVGLTLGVLFGKVFSQTTICRFEALQLSFKNMCKLRPLLQKWVEEAD [K18Q] ; what abundance fitness value has been reported?
Response line: 0.029

Prompt line: Suppose we examine the variant EESQDIKALQKELEQFAKLLKQKRITRGYTQADVGLTLGVLFGKVFSQTTICRFEALQLSFKNMCKLRPLLQKWVEEAD [L27R] ; what abundance fitness value has been reported?
Response line: -0.345

Prompt line: Suppose we examine the variant EESQDIKALQKELEQFAKLLKQKRITLGYTQADVGLTLGVLFGKVFSQTTICRFEALQLSFKNMCKLRPLLQKWQEEAD [V75Q] ; what abundance fitness value has been reported?
Response line: -0.206
